test system: Haemophilus influenzae; assay: Antibacterial activity against Haemophilus influenzae HI3542; type: functional; conditions: HI-3542
PROPERTY: MIC (µg/mL)
Please give a number only; it is taken to be in µg/mL.

Give the measured MIC of `Cc1c(N2CC[C@@H]([C@H](C)NCCC#N)C2)c(F)cc2c(=O)c(C(=O)O)cn(C3CC3)c12` . 0.03

Could you share which MIC value was measured for `COc1c(N2CC[C@@H](CN)C2)c(F)cc2c(=O)c(C(=O)O)cn(C3CC3)c12` ? 0.015

Return reported MIC; argument: `CCC1(CNCCC#N)CN(c2c(F)cc3c(=O)c(C(=O)O)cn(C4CC4)c3c2C)C1` 0.06

Suppose we examine the compound `COc1c(N2CC[C@@H]([C@@H](N)CC#N)C2)ccc2c(=O)c(C(=O)O)cn(C3CC3)c12` ; what MIC value has been reported? 0.06
